These measurements were taken from paper PMC7731115.

Tested on: Hela
Assay: MTT cytotoxic assay, Hela
Type: cell-based
Settings: Homo sapiens, 48 h, read-out: IC50 ± SD Hela
Measured IC50 values are reported for all entries that follow.
Give the value, in units of µM, as a plain number.

compound_structure: CC[C@H](CC[C@@H](C)[C@H]1CC[C@H]2[C@@H]3CCC4=CC(=O)CC[C@]4(C)[C@H]3CC[C@]12C)C(C)C
assay_system: Hela
reported: 32.5

Record summary for `CC[C@H](CC[C@@H](C)[C@H]1CC[C@H]2[C@@H]3CC=C4C[C@@H](O)CC[C@]4(C)[C@H]3CC[C@]12C)C(C)C` : reported IC50 = 42.3

* * *

System: A549
Assay: MTT cytotoxic assay, A549
Assay type: cell-based
Conditions: Homo sapiens, A549; pure compounds; MTT, 48-h incubation, n = 3; read-out: IC50 ± SD A549
Experimental: Crude extracts, in addition to six sterol compounds, were screened for their cytotoxic activities against four cancerous cell lines: HepG2, Hela, A549, and MCF-7 and a noncancerous breast (MCF-10A) cell line to test their safety using the MTT assay (Table 2). […] Crude extract, together with six of the identified sterols, were screened for their cytotoxic activities against liver HepG2, breast MCF-7, and normal cells (MCF-10A), as well. […] Then, IC50 in µM was calculated using GraphPad Prism 7.
measure: IC50 (µM)
Give the value, in units of µM, as a plain number.

compound: O=c1[nH]cc(F)c(=O)[nH]1 [Compound 5-FU, 5-fluorouracil, reference compound]
unit_tag: µM
IC50: 7.47

Record summary for CCC(CC[C@@H](C)[C@H]1CC[C@H]2[C@@H]3CC(O)C4=CC(=O)CC[C@]4(C)[C@H]3CC[C@]12C)C(C)C (stereo partly drawn) [Compound 3, 6-β-hydroxy-24-ethyl-cholest-4-en-3-one] : reported IC50 = 49.9

* * *

System: HepG2
Assay: MTT cytotoxic assay, HepG2
Type: cell-based
Settings: Homo sapiens, HepG2; pure compounds; MTT, 48-h incubation, n = 3; read-out: IC50 ± SD HepG2
Measured IC50 values are reported for all entries that follow.
Give the value, in units of µM, as a plain number.

molecule: CCCCCCCCCCCCCCCC(=O)OCC1OC(OC2CCC3(C)C(=CCC4C3CCC3(C)C(C(C)CCC(CC)C(C)C)CCC43)C2)C(O)C(O)C1O (stereo not shown) [Compound 6]
assay_system: HepG2
IC50 (µM): 42.5
//
molecule: O=c1[nH]cc(F)c(=O)[nH]1 [Compound 5-FU, 5-fluorouracil, reference compound]
assay_system: HepG2
IC50 (µM): 15.8

Log: HepG2, molecule CCCCCC/C=C\C/C=C\CCCCCCC(=O)OC[C@H]1O[C@@H](O[C@H]2CCC3(C)C(=CCC4C3CCC3(C)C(C(C)CCC(CC)C(C)C)CCC43)C2)[C@H](O)[C@@H](O)[C@@H]1O (stereo partly shown) [Compound 1] , IC50 = 27.5
